Tested on: Alopecurus myosuroides
Assay: Post-emergence herbicidal effect
Format: in vivo
Conditions: Dosage 320 g/ha, one-leaf stage, visual scoring after ca. 3 weeks vs untreated controls, 100% = plants have died
Listed here are compounds together with their documented Post-emergence herbicidal effect ALOMY.
Express it in %; write the number only.

Some solved entries appear below for comparison.
Cc1ccc2c(c1)[C@H](Nc1ncc(Br)c(N)n1)[C@@H](C)C2 | 85
Cc1ccc2c(c1)[C@H](Nc1ncc(Cl)c(N)n1)[C@@H](C)C2 | 80

Ask: Look up Post-emergence herbicidal effect ALOMY: "Nc1nc(N[C@@H]2CCCc3ccccc32)ncc1Cl"
Reply: 80

Ask: Look up Post-emergence herbicidal effect ALOMY: "CC[C@H]1Cc2ccccc2[C@@H]1Nc1ncc(C#N)c(N)n1"
Reply: 90

----------
Listed here are compounds together with their documented Post-emergence herbicidal effect ALOMY.
Tested on: Alopecurus myosuroides
Assay: Post-emergence herbicidal effect
Assay type: in vivo
Conditions: Dosage 320 g/ha, one-leaf stage, visual scoring after ca. 3 weeks vs untreated controls, 100% = plants have died
Include the unit right after the number.

Cc1ccc2c(c1)[C@H](Nc1nc(C)c(C#N)c(N)n1)[C@@H](C)C2 | 90%
Cc1ccc2c(c1)[C@H](Nc1ncc(C#N)c(N)n1)[C@@H](C)C2 | 100%

Ask: Look up Post-emergence herbicidal effect ALOMY: "CC[C@H]1Cc2ccc(C)cc2[C@@H]1Nc1nc(C)c(C#N)c(N)n1"
Reply: 80%

Ask: Look up Post-emergence herbicidal effect ALOMY: "N#Cc1cnc(N[C@@H]2CCCc3ccccc32)nc1N"
Reply: 95%

Ask: Look up Post-emergence herbicidal effect ALOMY: "Cc1nc(N[C@@H]2CCCc3ccccc32)nc(N)c1C#N"
Reply: 85%

Ask: Look up Post-emergence herbicidal effect ALOMY: Cc1nc(NC2CCOc3ccccc32)nc(N)c1C#N (racemic)
Reply: 90%

Every entry's value here was drawn from patent US8329717B2.
